- TEST: Selectivity index, ratio of MCC for African green monkey Vero E6 cells to IC50 for acyclovir and cidofovir-resistant HSV-1 L2 infected in African green monkey Vero E6 cells
- Parameters: species or system Vero C1008
I'd appreciate it if you could supply Selectivity Index values for the items below.

COMPOUND_STRING	Selectivity Index
O.O.O.O.O.O.O=C([O-])P(=O)([O-])[O-].[Na+].[Na+].[Na+]	8
Nc1nc2c(ncn2COCCO)c(=O)[nH]1	>26
Nc1ccn(C[C@@H](CO)OCP(=O)(O)O)c(=O)n1.O.O	>6.4

Now for the molecule whose Selectivity Index we want.
Input line: Request the reported Selectivity Index associated with NC(=O)c1ncn([C@@H]2O[C@H](CO)[C@@H](O)[C@H]2O)n1
Output line: >4

----------
- TEST: Cytotoxicity against African green monkey Vero E6 cells measured after 3 days by trypan blue assay
- Type: cell-based, Vero C1008
- RUN_PARAMETERS: chlorocebus sabaeus
I'd appreciate it if you could supply MCC at 72 h values for the items below.

COMPOUND_STRING	OBSERVED_RESULT
NC(=O)c1ncn([C@@H]2O[C@H](CO)[C@@H](O)[C@H]2O)n1	> 4100 µM
Nc1ccn(C[C@@H](CO)OCP(=O)(O)O)c(=O)n1.O.O	> 358 µM
Nc1nc2cc(F)c(F)cc2n1[C@@H]1O[C@H](CO)[C@@H](O)[C@H]1O	> 3320 µM

// each listed molecule needs a value for MCC at 72 h
1. Nc1nc2c(ncn2COCCO)c(=O)[nH]1
2. CC(C)Nc1nc2cc(Cl)c(Cl)cc2n1[C@H]1O[C@@H](CO)[C@H](O)[C@@H]1O
3. O.O.O.O.O.O.O=C([O-])P(=O)([O-])[O-].[Na+].[Na+].[Na+]
4. Nc1nc2cc(F)c(F)cc2n1[C@H]1C[C@H](O)[C@@H](CO)O1

Output line:
["> 444 µM", "665 µM", "833 µM", "> 3500 µM"]

----------
- TEST: Selectivity index, ratio of MCC for African green monkey Vero E6 cells to IC50 for HSV-1 L2 infected in African green monkey Vero E6 cells
- Set-up: species or system Vero C1008
Field: Selectivity Index. Provide a value for each of the compounds that follow.

Sample answers from the record:
COMPOUND	OBSERVED_RESULT
NC(=O)c1ncn([C@@H]2O[C@H](CO)[C@@H](O)[C@H]2O)n1 [RIBAVIRIN]	>8
Nc1nc2cc(F)c(F)cc2n1[C@@H]1O[C@H](CO)[C@@H](O)[C@H]1O	>32
Nc1ccn(C[C@@H](CO)OCP(=O)(O)O)c(=O)n1.O.O [CIDOFOVIR]	>26
Nc1nc2c(ncn2COCCO)c(=O)[nH]1 [ACYCLOVIR]	>256
CC(C)Nc1nc2cc(Cl)c(Cl)cc2n1[C@H]1O[C@@H](CO)[C@H](O)[C@@H]1O [MARIBAVIR]	1
O.O.O.O.O.O.O=C([O-])P(=O)([O-])[O-].[Na+].[Na+].[Na+]	8

Attention now shifts to the item below.
Input line: So what does the record say about Selectivity Index for Nc1nc2cc(F)c(F)cc2n1[C@H]1C[C@H](O)[C@@H](CO)O1 ?
Output line: >4

----------
Exercise: state measured Selectivity Index for each of the compounds provided.
- TEST: Selectivity index, ratio of MCC for African green monkey Vero E6 cells to IC50 for acyclovir and foscarnet-resistant HSV-1 L2 infected in African green monkey Vero E6 cells
- Design: species or system Vero C1008

Batch request: Selectivity Index for each of the following compounds.
1. Nc1nc2c(ncn2COCCO)c(=O)[nH]1 [ACYCLOVIR]
2. O.O.O.O.O.O.O=C([O-])P(=O)([O-])[O-].[Na+].[Na+].[Na+]
3. Nc1ccn(C[C@@H](CO)OCP(=O)(O)O)c(=O)n1.O.O [CIDOFOVIR]
4. NC(=O)c1ncn([C@@H]2O[C@H](CO)[C@@H](O)[C@H]2O)n1 [RIBAVIRIN]

Output line:
[">1", 2, ">51", ">4"]

----------
- TEST: Selectivity index, ratio of MCC for African green monkey Vero E6 cells to IC50 for acyclovir-resistant HSV-1 L2 infected in African green monkey Vero E6 cells
- Design: species or system Vero C1008
For each entry below, report its Selectivity Index value.

COMPOUND_STRING	OBSERVED_RESULT
Nc1ccn(C[C@@H](CO)OCP(=O)(O)O)c(=O)n1.O.O	>26

Hi! Can you tell me Selectivity Index for each of these compounds?
1. NC(=O)c1ncn([C@@H]2O[C@H](CO)[C@@H](O)[C@H]2O)n1
2. O.O.O.O.O.O.O=C([O-])P(=O)([O-])[O-].[Na+].[Na+].[Na+]
3. Nc1nc2c(ncn2COCCO)c(=O)[nH]1

Output line:
1: >4; 2: 8; 3: >1

----------
- TEST: Selectivity index, ratio of MCC for African green monkey Vero E6 cells to IC50 for HSV-1 L2/Rp-ACV/2 infected in African green monkey Vero E6 cells
- Set-up: species or system Vero C1008
Please go through the items and note down their Selectivity Index.

MOLECULE	Selectivity Index
NC(=O)c1ncn([C@@H]2O[C@H](CO)[C@@H](O)[C@H]2O)n1 [RIBAVIRIN]	>4
Nc1ccn(C[C@@H](CO)OCP(=O)(O)O)c(=O)n1.O.O [CIDOFOVIR]	>204

Now consider a different molecule.
Input line: Request the reported Selectivity Index associated with Nc1nc2cc(F)c(F)cc2n1[C@@H]1O[C@H](CO)[C@@H](O)[C@H]1O
Output line: >32
